Tested on: MCF-7 ADRr
protocol-text: growth inhibition by cell counts, 72 h
Type: cell-based, human
particulars: 72 h; read-out: MCF-7 ADRr IC50
outcome-measure: IC50 (nM)

>  <compound>
CCC(=O)OC1C(=O)C2(C)C(O)CC3OCC3(OC(C)=O)C2C(OC(=O)c2ccccc2)C2(O)CC(OC(=O)C(O)C(C=C(C)C)NC(=O)OC(C)(C)C)C(C)=C1C2(C)C (stereo not shown)

>  <experimental-value>
8

$$$$

----------
# IC50 values compiled below
Tested on: LCC6-WT: human breast carcinoma
protocol-text: cytotoxicity assay of second generation taxoids
Format: cell-based
particulars: 72 h drug exposure; read-out: LCC6-WT IC50

>  <compound>
CCC(=O)OC1C(=O)C2(C)C(O)CC3OCC3(OC(C)=O)C2C(OC(=O)c2cccc(N=[N+]=[N-])c2)C2(O)CC(OC(=O)C(O)C(CC(C)C)NC(=O)OC(C)(C)C)C(C)=C1C2(C)C (stereo not shown)

>  <IC50 [nM]>
1.1

$$$$
>  <compound>
C=CCC(NC(=O)OC(C)(C)C)C(O)C(=O)OC1CC2(O)C(OC(=O)c3cccc(OC)c3)C3C4(OC(C)=O)COC4CC(O)C3(C)C(=O)C(OC(=O)CC)C(=C1C)C2(C)C (stereo not shown)

>  <IC50 [nM]>
1.2

$$$$
>  <compound>
CCC(=O)OC1C(=O)C2(C)C(O)CC3OCC3(OC(C)=O)C2C(OC(=O)c2cccc(Cl)c2)C2(O)CC(OC(=O)C(O)C(C=C(C)C)NC(=O)OC(C)(C)C)C(C)=C1C2(C)C (stereo not shown)

>  <IC50 [nM]>
0.8

$$$$
>  <compound>
COc1cccc(C(=O)OC2C3C4(OC(C)=O)COC4CC(O)C3(C)C(=O)C(OC(C)=O)C3=C(C)C(OC(=O)C(O)C(C=C(C)C)NC(=O)OC(C)(C)C)CC2(O)C3(C)C)c1 (stereo not shown)

>  <IC50 [nM]>
0.6

$$$$
>  <compound>
CCC(=O)OC1C(=O)C2(C)C(O)CC3OCC3(OC(C)=O)C2C(OC(=O)c2cccc(OC)c2)C2(O)CC(OC(=O)C(O)C(NC(=O)OC(C)(C)C)C(F)F)C(C)=C1C2(C)C (stereo not shown)

>  <IC50 [nM]>
1.5

$$$$
>  <compound>
CCC(=O)OC1C(=O)C2(C)C(O)CC3OCC3(OC(C)=O)C2C(OC(=O)c2cccc(OC)c2)C2(O)CC(OC(=O)C(O)C(C=C(C)C)NC(=O)OC(C)(C)C)C(C)=C1C2(C)C (stereo not shown)

>  <IC50 [nM]>
1

$$$$
>  <compound>
CCC(=O)OC1C(=O)C2(C)C(O)CC3OCC3(OC(C)=O)C2C(OC(=O)c2cccc(N=[N+]=[N-])c2)C2(O)CC(OC(=O)C(O)C(C=C(C)C)NC(=O)OC(C)(C)C)C(C)=C1C2(C)C (stereo not shown)

>  <IC50 [nM]>
0.9

$$$$
>  <compound>
C=CCCC(NC(=O)OC(C)(C)C)C(O)C(=O)OC1CC2(O)C(OC(=O)c3cccc(OC)c3)C3C4(OC(C)=O)COC4CC(O)C3(C)C(=O)C(OC(=O)CC)C(=C1C)C2(C)C (stereo not shown)

>  <IC50 [nM]>
0.9

$$$$
>  <compound>
CC(=O)OC1C(=O)C2(C)C(O)CC3OCC3(OC(C)=O)C2C(OC(=O)c2cccc(C)c2)C2(O)CC(OC(=O)C(O)C(C=C(C)C)NC(=O)OC(C)(C)C)C(C)=C1C2(C)C (stereo not shown)

>  <IC50 [nM]>
1.5

$$$$
>  <compound>
C/C=C/C(NC(=O)OC(C)(C)C)C(O)C(=O)OC1CC2(O)C(OC(=O)c3cccc(OC)c3)C3C4(OC(C)=O)COC4CC(O)C3(C)C(=O)C(OC(=O)CC)C(=C1C)C2(C)C (stereo not shown)

>  <IC50 [nM]>
1.2

$$$$

Recorded values, source patent US6500858B2.
